Reported pKi values for a set of compounds
Biological target: human 5-HT6 receptor (Homo sapiens)
Construct: host or cells: CHO-K1 cells, stably transfected; membranes prepared in house
Sequence (P50406 whole entry): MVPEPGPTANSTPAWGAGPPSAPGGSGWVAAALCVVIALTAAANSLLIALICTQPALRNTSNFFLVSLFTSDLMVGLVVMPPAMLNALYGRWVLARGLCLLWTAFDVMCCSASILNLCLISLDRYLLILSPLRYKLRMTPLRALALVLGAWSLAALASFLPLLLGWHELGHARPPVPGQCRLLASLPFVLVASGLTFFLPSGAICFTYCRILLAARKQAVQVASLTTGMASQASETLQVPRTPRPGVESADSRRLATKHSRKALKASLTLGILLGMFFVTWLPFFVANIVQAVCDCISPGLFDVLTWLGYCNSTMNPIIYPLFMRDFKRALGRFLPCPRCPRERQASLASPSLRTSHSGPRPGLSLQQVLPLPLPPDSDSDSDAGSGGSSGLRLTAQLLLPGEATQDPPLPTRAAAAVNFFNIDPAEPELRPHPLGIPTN
Assay: Human 5-HT6 Receptor Binding Assay ([3H]LSD displacement, scintillation beads)
Details: membranes of CHO-K1 cells with recombinant human 5-HT6, 4 nM [3H]LSD; Table 1, class symbols; read-out: h5-HT6 (Ki)
pKi: −log10 of the molar value. Where a name gives a salt, the structure may show the parent alone.

Compound: O=[N+]([O-])c1ccc(S(=O)(=O)c2ccc3c4c(oc3c2)CNCC4)cc1
Test target: human 5-HT6 receptor (Homo sapiens)
pKi: > 6.30
//
Compound: CCCCOc1cccc(S(=O)(=O)c2ccc3c(c2)OC2CNCCC32)c1 (stereo not drawn)
Test target: human 5-HT6 receptor (Homo sapiens)
pKi: > 6.30
//
Compound: O=S(=O)(c1ccccc1)c1ccc2c3c([nH]c2c1)C1(CCOCC1)NCC3
Test target: human 5-HT6 receptor (Homo sapiens)
pKi: > 6.30
//
Compound: O=S(=O)(c1cccc(F)c1)c1ccc2oc3c(c2c1)CCN1CCCCC31 (stereo not drawn)
Test target: human 5-HT6 receptor (Homo sapiens)
pKi: < 6.00
//
Compound: O=S(=O)(Nc1ccc(Cl)cc1Cl)c1ccc2c(c1)C1CCNCC1O2 (stereo not drawn)
Test target: human 5-HT6 receptor (Homo sapiens)
pKi: < 6.00

Lab request: please report pKi under test system human 5-HT6 receptor (Homo sapiens) for COc1ccc(S(=O)(=O)Nc2ccc3c(c2)C2CCNCC2O3)cc1 (stereo not drawn)
< 6.00

And the next one, O=S(=O)(c1ccc2c3c(oc2c1)CNCC3)c1cccc2cccnc12 ?
> 6.30

And the next one, O=S(=O)(c1cc(F)cc(Cl)c1)c1ccc2oc3c(c2c1)CCNC3 ?
> 6.30

And the next one, O=S(=O)(Oc1ccc2c(c1)OC1CNCCC21)c1ccc(OC(F)(F)F)cc1 (stereo not drawn) ?
> 6.30

And the next one, Cc1c(S(=O)(=O)c2ccc3c4c(oc3c2)C(C)(C)NCC4)ccc[n+]1[O-] ?
< 6.00

And the next one, O=S(=O)(c1cc(F)cc(F)c1)c1ccc2c(c1)OC1CNCCC21 (stereo not drawn) [Example 158] ?
> 6.30

And the next one, Cc1ccc(S(=O)(=O)Oc2ccc3c(c2)OC2CNCCC32)cc1 (stereo not drawn) ?
> 6.30

And the next one, CC12CCNCC1Oc1ccc(OS(=O)(=O)CCc3ccccc3)cc12 (stereo not drawn) ?
< 6.00

And the next one, O=S(=O)(c1ccccc1)c1ccc2c3c(oc2c1)[C@@]1(CCOC1)NCC3 (single isomer, unassigned) ?
> 6.30

And the next one, CC(C)Oc1cc(F)cc(S(=O)(=O)c2ccc3c(c2)OC2CNCCC32)c1 (single isomer, unassigned) [Example 364, hydrochloride] ?
> 6.30

And the next one, O=S(=O)(c1ccccc1)c1ccc2c3c(oc2c1)C1(CCCOC1)NCC3 (single isomer, unassigned) [Example 544] ?
6.00 to 6.30

And the next one, O=S(=O)(Oc1ccc2c(c1)C1CCNCC1O2)c1ccc(F)c(Cl)c1 (stereo not drawn) ?
6.00 to 6.30

And the next one, O=S(=O)(c1cncc(Cl)c1)c1ccc2c(c1)OC1CNCCC21 (stereo not drawn) ?
> 6.30
